The reported numbers originate from PubChem BioAssay (NCI).

Measured growth of individual entries
- Tested on: MALME-3M melanoma
- Assay protocol: NCI-60 one-dose screen, 48 h (100 = growth as untreated, 0 = no growth, -100 = all killed)
- Test settings: 10 µM unless noted
Compounds without any hit were thinned out: in the full panel of roughly 83,000, 20% have a hit.
Report as a plain number; the unit % is understood.

| Compound | growth / % |
| --- | --- |
| CC(C)(C)N1CC1C#N (stereo not given) | 103 |

Reported growth for "Cc1ccc(C(=O)NCCCOc2ccc(N3C(N)=NC(N)=NC3(C)C)cc2Cl)cc1S(=O)(=O)F" was 70.4

Reported growth for "Cc1cc(N(CCCl)CCCl)ccc1C=Nc1ccc(-c2csc(Cc3ccccc3)n2)cc1" was 70.8

Reported growth for "CC[C@H](C)[C@H](NC(=O)[C@H]1CCCCN1C)C(=O)N(C)[C@H](C[C@@H](O)c1nc(C(=O)N[C@@H](Cc2ccccc2)C[C@H](C)C(=O)O)cs1)C(C)C" was 77.6

----------
- Tested on: SF-539 CNS
- Assay protocol: NCI-60 one-dose screen, 48 h (100 = growth as untreated, 0 = no growth, -100 = all killed)
- Test settings: 10 µM unless noted
The panel holds about 83,000 compounds, 20% with a hit somewhere; the sample as a whole holds those more often.
Assay readout: growth (%)
Report as a plain number; the unit % is understood.

The compound "c1ccc(COc2ccc3[nH]cc(CCN(Cc4ccccc4)Cc4ccccc4)c3c2)cc1" , tested on SF-539 CNS, showed growth of 97.1

The compound "COc1cc2c(c(OC)c1OC)-c1ccc([O-])c(=O)cc1[C@@H](NC(C)=O)CC2.COc1cc2c(c(OC)c1OC)-c1ccc([O-])c(=O)cc1[C@@H](NC(C)=O)CC2.[Cu+2]" , tested on SF-539 CNS, showed growth of -17.2

The compound "CCOC(=O)[C@@H](C)C[C@H](Cc1ccccc1)NC(=O)c1nc([C@@H](C[C@H](C(C)C)N(C)C(=O)[C@@H](NC(=O)[C@H]2CCCCN2C)C(C)C)OC(C)=O)sc1CCOCc1ccccc1" , tested on SF-539 CNS, showed growth of -69.2

The compound "O=C(c1ccccc1O)c1[nH]c(Cl)c(Cl)c1-n1c(C(=O)c2ccccc2O)cc(Cl)c1Cl" , tested on SF-539 CNS, showed growth of 7.94

The compound COC(=O)C1OC(Oc2ccc(N(CCCl)CCCl)cc2)C(OC(C)=O)C(OC(C)=O)C1OC(C)=O (centres undefined) , tested on SF-539 CNS, showed growth of 70.9

The compound "COC(=O)[C@@H](C)C[C@H](Cc1ccccc1)NC(=O)c1csc(CC[C@H](C(C)C)N(C)C(=O)[C@@H](NC(=O)[C@H]2CCCCN2C)C(C)C)n1" , tested on SF-539 CNS, showed growth of -9.08

The compound "COC(=O)[C@@H](C)C[C@H](Cc1ccccc1)NC(=O)c1csc([C@@H](C[C@H](C(C)C)N(C)C(=O)[C@H](C)NC(=O)[C@H]2CCCN2C)OC(C)=O)n1" , tested on SF-539 CNS, showed growth of 39.9

The compound "COC(=O)CC12CC(NC(=O)c3csc([C@@H](C[C@H](C(C)C)N(C)C(=O)[C@@H](NC(=O)[C@H]4CCCCN4C)C(C)C)OC(C)=O)n3)(C1)C2" , tested on SF-539 CNS, showed growth of -12.8

The compound "CCCc1cc(O)c2c3c(c(=O)oc2c1)CN(C)CC3" , tested on SF-539 CNS, showed growth of 31.7
